# Measurement Target: T1, wild-type rat apelin receptor-EGFP (rat, UniProt Q9JHG3 1-377, EGFP is fused at the C-terminal (intracellular) end of the receptor. It is not included in the letters.)
# T1 construct: Stably expressed in CHO cells; cAMP, internalization and ERK1/2 assays on whole cells; also called ApelinR-EGFP; APJ receptor; not shown: The EGFP fused to the receptor's C-terminus, and any linker to it
# T1 sequence: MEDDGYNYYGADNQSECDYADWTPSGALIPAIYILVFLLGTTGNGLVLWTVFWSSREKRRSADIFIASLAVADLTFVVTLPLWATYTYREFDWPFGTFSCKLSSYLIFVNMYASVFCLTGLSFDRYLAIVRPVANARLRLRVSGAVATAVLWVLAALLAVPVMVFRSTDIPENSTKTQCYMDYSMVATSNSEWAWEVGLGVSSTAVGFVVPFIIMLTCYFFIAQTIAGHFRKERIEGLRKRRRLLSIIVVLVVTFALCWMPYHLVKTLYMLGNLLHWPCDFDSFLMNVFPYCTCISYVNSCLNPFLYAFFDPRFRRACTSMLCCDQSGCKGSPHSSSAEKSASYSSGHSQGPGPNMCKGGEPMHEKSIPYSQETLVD
# Assay: competitive radioligand binding vs [125I]-pE13F, membranes of CHO cells expressing rat apelin receptor-EGFP
Measured Parameter: Ki (nM)
The answer is to be given in nM; state only the numeric part.

Problem: Give a short answer stating reported Ki for H-KFRRQRPRLSHKGPMPF-OH [K17F (apelin-17)] .
Solution: 0.049

Origin of the recorded values: patent US20170355734A1
